Origin of measurements: patent US20120253017A1

Quick reference for kon among some binders
Target: T1, human ventricular myosin light chain 1, GlySer(His)6 tag (human, UniProt P08590 1-195, limits assumed)
T1 construct: also called human vMLC-1; vMLC1-6xHIS
T1 sequence (P08590 other isoform, or with tags, fused parts or gaps limits assumed): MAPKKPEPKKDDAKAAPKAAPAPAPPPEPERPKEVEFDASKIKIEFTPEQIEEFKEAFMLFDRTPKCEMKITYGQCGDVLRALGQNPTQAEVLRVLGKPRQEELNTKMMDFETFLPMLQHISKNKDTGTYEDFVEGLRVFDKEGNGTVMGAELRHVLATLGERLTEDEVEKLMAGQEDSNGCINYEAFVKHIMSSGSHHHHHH
Assay: BIAcore, vMLC-1 immobilised
Kindly answer with a numeric value in M⁻¹ s⁻¹, unit omitted.

{"Binder": "humanised 39-15 mAb 4-1:1-46 (antibody, human IgG1, V domains shown, human IgG1 kappa) VH: QVQLVQSGAEVKKPGASVKVSCKASGYTFTTYWIHWVRQAPGQGLEWMGAIYPGDGDTRYTQNFKDRVTMTRDTSTSTVYMELSSLRSEDTAVYYCAREGTPPFTTATFAMAYWGQGTLVTVSS VL: DIVMTQSPDSLAVSLGERATINCKSSQSLLYSRTRKNYLAWYQQKPGQPPKLLIYWASTRQSGVPDRFSGSGSGTDFTLTISSLQAEDVAVYYCKQSYNLFTFGQGTKLEIKR", "Scale Unit": "M⁻¹ s⁻¹", "Obs Value": "1.99e+06"}
{"Binder": "humanised 39-15 mAb 4-1:1-3 (antibody, human IgG1, kappa, V domains shown, human IgG1 kappa) VH: QVQLVQSGAEVKKPGASVKVSCKASGYTFTTYWIHWVRQAPGQRLEWMGAIYPGDGDTRYTQNFKDRVTITRDTSASTAYMELSSLRSEDMAVYYCAREGTPPFTTATFAMAYWGQGTLVTVSS VL: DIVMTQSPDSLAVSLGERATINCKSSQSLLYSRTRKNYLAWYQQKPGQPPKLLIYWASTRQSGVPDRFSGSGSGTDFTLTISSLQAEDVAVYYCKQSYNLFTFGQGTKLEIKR", "Scale Unit": "M⁻¹ s⁻¹", "Obs Value": "1.84e+06"}

Prompt: Report kon for humanised 39-15 mAb 4-1:5-51 (antibody, human IgG1, kappa, V domains shown, human IgG1 kappa) VH: EVQLVQSGAEVKKPGESLKISCKGSGYSFTTYWIHWVRQMPGKGLEWMGAIYPGDGDTRYTQNFKDQVTISADKSISTAYLQWSSLKASDTAMYYCAREGTPPFTTATFAMAYWGQGTLVTVSS VL: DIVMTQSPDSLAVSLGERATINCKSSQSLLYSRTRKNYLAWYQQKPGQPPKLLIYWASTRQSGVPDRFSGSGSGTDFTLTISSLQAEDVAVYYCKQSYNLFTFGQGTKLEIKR please.
Completion: 1.57e+06

Prompt: May I ask what kon has been recorded for humanised 39-15 mAb 4-1:1-8 (antibody, V domains shown) VH: QVQLVQSGAEVKKPGASVKVSCKASGYTFTTYWIHWVRQATGQGLEWMGAIYPGDGDTRYTQNFKDRVTMTRNTSISTAYMELSSLRSEDTAVYYCAREGTPPFTTATFAMAYWGQGTLVTVSS VL: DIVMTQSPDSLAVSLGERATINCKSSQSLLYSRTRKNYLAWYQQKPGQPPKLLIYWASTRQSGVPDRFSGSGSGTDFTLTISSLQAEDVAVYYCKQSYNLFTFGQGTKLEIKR ?
Completion: 1.46e+06
